# Assay System: aldose reductase (Bos taurus, UniProt P16116)
# Construct: preparation of the enzyme from bovine lens; from tissue; host or cells: bovine lens
# Experimental Details: in vitro aldose reductase inhibition (modified Hayman and Kinoshita procedure; enzyme from bovine lens)
# Type: biochemical
# Details: 10^-6 molar, read-out: Percent Inhibition at Different Molar Concentrations (in vitro)
Readout Type: inhibition at 1 µM (%)
Numbers only, in %.

Some compounds with known inhibition at 1 µM results, for comparison:
Compound	Scale Unit	Endpoint Result
CCCCCCCCCCSc1ccc2c3c(cccc13)C(=O)N(CC(=O)O)C2=O	%	33
O=C(O)CN1C(=O)c2cccc3c(Sc4ccccc4C(=O)O)ccc(c23)C1=O	%	61
O=C(O)CN1C(=O)c2cccc3c(Cl)ccc(c23)C1=O	%	42
O=C(O)CN1C(=O)c2cccc3cccc(c23)C1=O [reference compound]	%	32
O=C(O)CN1C(=O)c2cccc3c(Sc4ccccc4)ccc(c23)C1=O	%	71

Moving on to another compound below.
The compound O=C(O)CN1C(=O)c2cccc3c(C(=O)c4ccccc4)ccc(c23)C1=O showed inhibition at 1 µM equal to 65

# credit: patent US4254109A
